- System: BDF1 mice, s.c. Lewis lung carcinoma, T/C %
- assayExplanation: NCI In Vivo Anticancer Drug Screen. Data for tumor model Lewis Lung Carcinoma (subcutaneous) in B6D2F1 (BDF1) mice
- reportedConditions: endpoint: mean tumor weight; dose: 166.0 mg/kg/injection; schedule: Q01DX011 (ip); vehicle: other; higher = larger tumour
Results filed as inconclusive are left out.
measuredProperty: T/C

Would you please give the reported T/C of CCOc1ccccc1C1N(Cc2ccc(OC)cc2)CCCN1Cc1ccc(OC)cc1 with BDF1 mice, s.c. Lewis lung carcinoma, T/C %?
93 % of control

Would you please give the reported T/C of CC(=O)CC(=O)Nc1ccc(Cl)cc1 with BDF1 mice, s.c. Lewis lung carcinoma, T/C %?
156 % of control

Would you please give the reported T/C of COc1ccc(CN2CCCN(Cc3ccc(OC)cc3)C2c2ccc(Cl)cc2Cl)cc1 with BDF1 mice, s.c. Lewis lung carcinoma, T/C %?
111 % of control

Would you please give the reported T/C of CC1(C)C(CC(=O)O)CC1C(=O)O (centres undefined) with BDF1 mice, s.c. Lewis lung carcinoma, T/C %?
78 % of control

====

- Test system: BDF1 mice, s.c. Lewis lung carcinoma, T/C %
- assayExplanation: NCI In Vivo Anticancer Drug Screen. Data for tumor model Lewis Lung Carcinoma (subcutaneous) in B6D2F1 (BDF1) mice
- reportedConditions: endpoint: mean tumor weight; dose: 10.0 mg/kg/injection; schedule: Q01DX011 (ip); vehicle: carboxymethylcellulose (CMC); higher = larger tumour
Inconclusive results are not listed.
measuredProperty: T/C

For the compound CN(C)C(=S)N=Nc1c(O)[nH]c2ccccc12 , give its reported T/C.
89 % of control

For the compound COC(=O)c1ccccc1NC(c1ccccn1)c1ccc2cccnc2c1O (stereo not given) , give its reported T/C.
55 % of control

For the compound CCCCCC/C=C/[N+]([O-])=NC(COC)C(C)O (stereo not given) , give its reported T/C.
96 % of control

For the compound O=C(Nc1ccc(C2=NCCN2)cc1)c1ccc(C(=O)Nc2ccc(C3=NCCN3)cc2)c(Cl)c1 , give its reported T/C.
51 % of control

For the compound COc1cc(-c2ccc(Nc3ccccc3C(=O)O)c(OC)c2)ccc1N , give its reported T/C.
86 % of control

====

Consider the following molecules; for each one, report its T/C.
- Test system: BDF1 mice, s.c. Lewis lung carcinoma, T/C %
- assayExplanation: NCI In Vivo Anticancer Drug Screen. Data for tumor model Lewis Lung Carcinoma (subcutaneous) in B6D2F1 (BDF1) mice
- reportedConditions: endpoint: mean tumor weight; dose: 22.0 mg/kg/injection; schedule: Q01DX011 (ip); vehicle: carboxymethylcellulose (CMC); higher = larger tumour
Inconclusive results are not listed.

Would you please give the reported T/C of O=c1[nH]c2cc(Cl)c(Cl)cc2o1 with BDF1 mice, s.c. Lewis lung carcinoma, T/C %?
79 % of control

Would you please give the reported T/C of CCCCCCCCCCCCCCCCC(C(=O)O)C(O)(CC(=O)O)C(=O)O (stereo not given) with BDF1 mice, s.c. Lewis lung carcinoma, T/C %?
64 % of control

Would you please give the reported T/C of CO/[N+]([O-])=C\C(=O)N/C=C/C(=O)O with BDF1 mice, s.c. Lewis lung carcinoma, T/C %?
80 % of control

Would you please give the reported T/C of CNS(=O)(=O)c1ncnc2nc[nH]c12 with BDF1 mice, s.c. Lewis lung carcinoma, T/C %?
61 % of control

Would you please give the reported T/C of O=C1CCCC2C3CC(CN12)C1CCCCN1C3 (stereo not given) with BDF1 mice, s.c. Lewis lung carcinoma, T/C %?
113 % of control

====

- Tested on: BDF1 mice, s.c. Lewis lung carcinoma, T/C %
- assayExplanation: NCI In Vivo Anticancer Drug Screen. Data for tumor model Lewis Lung Carcinoma (subcutaneous) in B6D2F1 (BDF1) mice
- reportedConditions: endpoint: mean tumor weight; dose: 1.0 mg/kg/injection; schedule: Q01DX011 (ip); vehicle: saline; higher = larger tumour
Inconclusive results are not listed.
Consider the following compounds; for each one, report its T/C.

Would you please give the reported T/C of NC(Cc1c[nH]c2ccc(N(CCCl)CCCl)cc12)C(=O)O (stereo not drawn) with BDF1 mice, s.c. Lewis lung carcinoma, T/C %?
98 % of control

Would you please give the reported T/C of Nc1nc(SN=Nc2ccc(S(=O)(=O)O)cc2)c2[nH]cnc2n1 with BDF1 mice, s.c. Lewis lung carcinoma, T/C %?
78 % of control

Would you please give the reported T/C of N[C@@H](Cc1ccc(N(CCCl)CCCl)cc1)C(=O)O with BDF1 mice, s.c. Lewis lung carcinoma, T/C %?
46 % of control

Would you please give the reported T/C of CC(C)CCCCCCCCCCCCC(=O)NCC(=O)NC1C(O)C(O)C(Nc2ncnc3nc[nH]c23)OC1C(O)CO (stereo not drawn) with BDF1 mice, s.c. Lewis lung carcinoma, T/C %?
100 % of control

Would you please give the reported T/C of Nc1nc(SN=Nc2ccc(S(N)(=O)=O)cc2)c2[nH]cnc2n1 with BDF1 mice, s.c. Lewis lung carcinoma, T/C %?
43 % of control

Would you please give the reported T/C of Cc1cc(O)c2cc3c(O)c(O)ccc3cc2c1 with BDF1 mice, s.c. Lewis lung carcinoma, T/C %?
62 % of control

Would you please give the reported T/C of C=C1c2[nH]c3ccccc3c2CN2CCC1/C(=C/C)C2 (stereo not drawn) with BDF1 mice, s.c. Lewis lung carcinoma, T/C %?
74 % of control

Would you please give the reported T/C of CC[n+]1ccc(Nc2ccc(NC(=O)c3ccc(Nc4cc[n+](CC)c5ccc(N)cc45)cc3)cc2)cc1 with BDF1 mice, s.c. Lewis lung carcinoma, T/C %?
107 % of control

====

- Tested on: BDF1 mice, s.c. Lewis lung carcinoma, T/C %
- assayExplanation: NCI In Vivo Anticancer Drug Screen. Data for tumor model Lewis Lung Carcinoma (subcutaneous) in B6D2F1 (BDF1) mice
- reportedConditions: endpoint: median survival time; dose: 1.0 mg/kg/injection; schedule: Q01DX009 (ip); vehicle: saline; higher = longer survival
Results filed as inconclusive are left out.
Consider the following compounds; for each one, report its T/C.

For the compound C(/C=C/C=C/N1CCCCC1)=[N+]1CCCCC1 , give its reported T/C.
110 % of control

For the compound CCCCCCCCCCCC[N+](C)(C)Cc1ccccc1 , give its reported T/C.
97 % of control

For the compound CC(C)n1c2c([n+](C)c1/C=C/c1ccccc1)C(=O)c1ccccc1C2=O , give its reported T/C.
110 % of control

For the compound CCCCCCCCCCCC(c1ccccc1)[N+](C)(C)C (centres undefined) , give its reported T/C.
96 % of control

For the compound CC1CN1c1nc(N2CC2C)nc(N2CC2C)n1 (centres undefined) , give its reported T/C.
106 % of control

For the compound CC[C@@H]1O[C@@H]([C@@H]2CC[C@](O)([C@]3(C)CC[C@@H]([C@@H](C)[C@@]4(O)CC[C@H](C)[C@@H](C[C@@]5(O)O[C@@H]([C@@H](C)[C@H](O)C[C@H]6CC[C@H](C)[C@@H]([C@@H](C)C(=O)O)O6)CC[C@@H]5C)O4)O3)O2)CC[C@@]1(C)O , give its reported T/C.
97 % of control

For the compound S=P(N1CC1)(N1CC1)N1CC1 , give its reported T/C.
100 % of control

For the compound S=c1nc[nH]c2nc[nH]c12 , give its reported T/C.
106 % of control

For the compound COc1ccc(CC2C(=O)NC(C)C(=O)N(C)C3C(=O)N(C)C(Cc4ccc(O)c(c4)Oc4ccc(cc4)C3O)C(=O)NC(C)C(=O)NC(C)C(=O)N2C)cc1 (centres undefined) , give its reported T/C.
113 % of control

====

Consider the following compounds; for each one, report its T/C.
- Tested on: BDF1 mice, s.c. Lewis lung carcinoma, T/C %
- assayExplanation: NCI In Vivo Anticancer Drug Screen. Data for tumor model Lewis Lung Carcinoma (subcutaneous) in B6D2F1 (BDF1) mice
- reportedConditions: endpoint: mean tumor weight; dose: 125.0 mg/kg/injection; schedule: Q01DX011 (ip); vehicle: other; higher = larger tumour
Records with an inconclusive call do not appear.

For the compound c1ccc(OP(Oc2ccccc2)Oc2ccccc2)cc1 , give its reported T/C.
79 % of control

For the compound Nc1nc(SCc2ccc([N+](=O)[O-])cc2)c2[nH]cnc2n1 , give its reported T/C.
98 % of control

For the compound O=[N+]([O-])c1ccccc1CSc1ncnc2nc[nH]c12 , give its reported T/C.
41 % of control

For the compound CC(=O)c1ccc(-c2ccccc2)cc1 , give its reported T/C.
57 % of control

For the compound CC(C)(C)C(=O)O , give its reported T/C.
92 % of control

====

Consider the following molecules; for each one, report its T/C.
- Tested on: BDF1 mice, s.c. Lewis lung carcinoma, T/C %
- assayExplanation: NCI In Vivo Anticancer Drug Screen. Data for tumor model Lewis Lung Carcinoma (subcutaneous) in B6D2F1 (BDF1) mice
- reportedConditions: endpoint: mean tumor weight; dose: 0.5 mg/kg/injection; schedule: Q01DX011 (ip); vehicle: other; higher = larger tumour
- Experimental: The antitumor activity of compounds was measured in mice bearing transplantable tumors. Survival or tumor size were measured and the results are expressed as the measurement made in the treated group (T) divided by the measurement made in the vehicle treated control group (C). The tumor model used in this assay is Lewis Lung Carcinoma (subcutaneous) in B6D2F1 (BDF1) mice
Results filed as inconclusive are left out.

For the molecule N#CCCN(Cc1ccccc1)C(N)=O , give its reported T/C.
73 % of control

For the molecule COc1ccc2c3c(c4cc(OC)c(OC)cc4c2c1)C[C@H]1CCCCN1C3 , give its reported T/C.
190 % of control

For the molecule COC(=O)c1nc(-c2ccc3c(n2)C(=O)C(N)=C(OC)C3=O)c(N)c(-c2ccc(OC)c(OC)c2O)c1C , give its reported T/C.
70 % of control

For the molecule O=C(Nc1ccc(C2=NCCCN2)cc1)c1ccc(C(=O)Nc2ccc(C3=NCCCN3)cc2)cc1 , give its reported T/C.
98 % of control
